assay_system: Recombinant STAT6 protein (STAT6(W123-T658)) (Homo sapiens)
Construct: Recombinant STAT6 protein (STAT6(W123-T658))
Sequence (P42226 123-658): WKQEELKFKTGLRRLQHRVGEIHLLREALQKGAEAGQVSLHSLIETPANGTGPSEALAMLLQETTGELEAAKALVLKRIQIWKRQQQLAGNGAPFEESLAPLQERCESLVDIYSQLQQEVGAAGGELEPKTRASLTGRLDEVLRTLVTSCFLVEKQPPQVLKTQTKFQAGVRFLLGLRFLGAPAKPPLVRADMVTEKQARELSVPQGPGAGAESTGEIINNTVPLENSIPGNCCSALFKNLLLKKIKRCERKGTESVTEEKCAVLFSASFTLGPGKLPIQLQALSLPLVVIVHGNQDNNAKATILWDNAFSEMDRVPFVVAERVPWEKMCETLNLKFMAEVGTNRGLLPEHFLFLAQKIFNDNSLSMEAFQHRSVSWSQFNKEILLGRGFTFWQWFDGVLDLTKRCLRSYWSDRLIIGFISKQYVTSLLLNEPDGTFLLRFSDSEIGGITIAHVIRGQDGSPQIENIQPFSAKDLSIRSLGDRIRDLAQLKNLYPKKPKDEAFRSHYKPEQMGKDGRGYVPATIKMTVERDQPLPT
method_description: STAT6 Fluorescence Polarization (FP) Assay
Type: binding
applied_conditions: STAT6(W123-T658) 250 nM, probe 5-FAM-ApYKPFQDLI-NH2 2 nM, 45-minute incubation
Parameter IC50: see the listing below.

Example cases with answers are listed next.
C[C@H](C(=O)N1CC[C@H]2CC[C@@H](C(=O)Nc3ccc(-c4ccccc4)cc3)N2C(=O)[C@@H](NC(=O)c2cc3cc(C(F)(F)P(=O)(O)O)ccc3[nH]2)C1)c1ccccc1	0.3 to 3 µM
Cc1ccc2[nH]nc(C(=O)N3CC[C@H]4CC[C@@H](C(=O)N(C)C)N4C(=O)[C@@H](NC(=O)c4cc5cc(CP(=O)(O)O)ccc5s4)C3)c2c1	3 to 30 µM
CC(=O)N1CC[C@H]2CC[C@@H](C(=O)Nc3ccc4nccn4c3)N2C(=O)[C@@H](NC(=O)c2cc3cc(C(F)(F)P(=O)(O)O)ccc3s2)C1	0.3 to 3 µM
CC(=O)N1CC[C@H]2CC[C@@H](C(=O)Nc3cc(C)c4[nH]ncc4c3)N2C(=O)[C@@H](NC(=O)c2cc3cc(C(F)(F)P(=O)(O)O)ccc3s2)C1	0.3 to 3 µM
CC(=O)N1CC[C@H]2CC[C@@H](C(=O)N3C[C@@H](C#N)[C@H](c4ccccc4)C3)N2C(=O)[C@@H](NC(=O)c2cc3cc(C(F)(F)P(=O)(O)O)ccc3s2)C1 (single isomer, unassigned)	≤ 0.3 µM

Input line: Quick one: give measured IC50 for CC(=O)N1CC[C@H]2CC[C@@H](C(=O)NC3COc4ccc(Cl)cc4C3)N2C(=O)[C@@H](NC(=O)c2cc3cc(C(F)(F)P(=O)(O)O)ccc3s2)C1 (stereo partly drawn)
Output line: 0.3 to 3 µM
